- test-summary: High-temperature color development rate (A35/A23×100), temperature dependency
- Format: physicochemical
- details: photochromic laminate prepared by coating method
endpoint-label: A35/A23 *100 (%)

molecule="COc1ccc(C2(c3ccc(OC)c(OC)c3)C=Cc3c4c(c5cc(N6CCc7ccccc76)c(OC)cc5c3O2)-c2ccccc2C4(CCC(F)(F)F)CCC(F)(F)F)cc1 (stereo not drawn) [Formula (67A)]" assay_value=66
molecule="COc1ccc(C2(c3ccc(OC)cc3)C=Cc3c4c(c5cc(N6CCc7cc(C)ccc76)c(OC)cc5c3O2)-c2ccccc2C4(C)C)cc1 [Formula (52A)]" assay_value=75
molecule="CCCC1(C)c2cc(Oc3ccccc3)ccc2-c2c1c1c(c3cc(OC)c(N4CCc5ccccc54)cc23)OC(c2ccc(OC)cc2)(c2ccc3c(c2)CCO3)C=C1 (stereo not drawn) [Formula (70A)]" assay_value=77

====

- test-summary: Residual rate (A90/A0×100) after 90 h accelerated deterioration in xenon weather meter X25, color developing durability
- Format: physicochemical
- details: binder sheet (binder method); after 90 h accelerated deterioration
endpoint-label: Residual rate (%)

compound="CCCC1(C)c2cc(Oc3ccccc3)ccc2-c2c1c1c(c3cc(OC)c(N4CCc5ccccc54)cc23)OC(c2ccc(OC)cc2)(c2ccc3c(c2)CCO3)C=C1 (centres unmarked) [Formula (70A)]" assay_value=82
compound="COCCOCCOCCC1(CCOCCOCCOC)c2ccccc2-c2c1c1c(c3cc(OC)c(N4CCc5cc(F)ccc54)cc23)OC(c2ccc(OC)cc2)(c2ccc(OC)cc2)C=C1 [Formula (50A)]" assay_value=84
compound="COc1ccc(C2(c3ccc(OC)cc3)C=Cc3c4c(c5cc(N6CCc7ccccc76)c(OC)cc5c3O2)-c2ccccc2C4(C)C)cc1 [Formula (28A)]" assay_value=88
compound="CCCCCCOc1ccc(C2(c3ccc(OCCCCCC)cc3)C=Cc3c4c(c5cc(N6CCc7cc(OC)ccc76)c(OC)cc5c3O2)-c2ccc(-c3ccc(C(F)(F)F)cc3)cc2C42CC(C)(C)CC(C)(C)C2)cc1 [Formula (48A)]" assay_value=84
compound="CCCOc1ccc(C2(c3ccc(OCCC)cc3)C=Cc3c4c(c5cc(N6CCc7ccccc76)c(OC)cc5c3O2)-c2ccc(-c3ccc(C)cc3)cc2C42CCCCCCC2)cc1 [Formula (35A)]" assay_value=90

====

- test-summary: 23°C color fading half-life τ1/2 after 240 s light irradiation
- Assay type: physicochemical
Recorded 23°C color fading half-life values for a group of compounds are listed next.
endpoint-label: 23°C color fading half-life

compound="CCCc1ccc(C2(c3ccc(OC)cc3)C=Cc3c4c(c5cc(N6CCc7ccccc76)c(OC)cc5c3O2)-c2ccc(-c3ccc(C(F)(F)F)cc3)cc2C4(CCOC)CCOC)cc1 (centres unmarked) [Formula (85A)]" assay_value="56 s"
compound="COCCCC1(CCCOC)c2cc(Sc3c(C)cccc3C)ccc2-c2c1c1c(c3cc(OC)c(N(CCOC)c4ccc(C(F)(F)F)cc4)cc23)OC(c2ccc(OC)cc2)(c2ccc(OC)cc2)C=C1 [Example 57 Formula (132)]" assay_value="47 s"
compound="CCCCC1(CCCC)c2cc(C(F)(F)F)ccc2-c2c1c1c(c3cc(C)c(N4CCc5ccccc54)cc23)OC(c2ccc(OC)cc2)(c2ccc(OC)c(C)c2)C=C1 (centres unmarked) [Formula (64A)]" assay_value="66 s"
compound="CCCCN(c1ccccc1)c1cc2c3c(c4c(c2cc1OC)OC(c1ccc(OC)cc1)(c1ccc(OCCC)cc1)C=C4)C(CC)(CC)c1cc(OC(F)(F)F)ccc1-3 (centres unmarked) [Example 51 Formula (117)]" assay_value="38 s"
compound="CCCCN(c1ccc(F)cc1)c1cc2c3c(c4c(c2cc1OC)OC(c1ccc(OC)cc1)(c1ccc(OC)cc1)C=C4)C(CCCCOC)(CCCCOC)c1ccccc1-3 [Example 16 Formula (77)]" assay_value="72 s"

====

- test-summary: Maximum absorption wavelength (λmax) after color development, spectrophotometer MCPD3000
- Type: physicochemical
- details: photochromic cured product, thickness 1 mm (kneading method); after color development
Listing of entries alongside the reported Maximum absorption wavelength.
endpoint-label: Maximum absorption wavelength (nm)

molecule="CCC1(CC)CCC2(CC1)c1cc(OC(F)(F)F)ccc1-c1c2c2c(c3cc(OC)c(N4CCc5ccccc54)cc13)OC(c1ccc(OC)cc1)(c1ccc(OCCCO[Si](C)(C)CC[Si](O[Si](C)(C)C)(O[Si](C)(C)C)O[Si](C)(C)C)cc1)C=C2 (centres unmarked) [Formula (74A)]" assay_value=526
molecule="COc1ccc(C2(c3ccc(OC)cc3)C=Cc3c4c(c5cc(N6CCc7cc(C)ccc76)c(OC)cc5c3O2)-c2ccccc2C4(C)C)cc1 [Formula (52A)]" assay_value=539
molecule="COCCCC1(CCCOC)c2ccccc2-c2c1c1c(c3cc(OC)c(N4CC(C)c5ccccc54)cc23)OC(c2ccc(OC)cc2)(c2ccc(OC)cc2)C=C1 (centres unmarked) [Formula (39A)]" assay_value=537
molecule="CCCC1(C)c2cc(Oc3ccccc3)ccc2-c2c1c1c(c3cc(OC)c(N4CCc5ccccc54)cc23)OC(c2ccc(OC)cc2)(c2ccc3c(c2)CCO3)C=C1 (centres unmarked) [Formula (70A)]" assay_value=540
molecule="COCCOCCOCCC1(CCOCCOCCOC)c2ccccc2-c2c1c1c(c3cc(OC)c(N4CCc5cc(F)ccc54)cc23)OC(c2ccc(OC)cc2)(c2ccc(OC)cc2)C=C1 [Formula (50A)]" assay_value=526

====

Here, each record is paired with measured Maximum absorption wavelength (nm) data.
- test-summary: Maximum absorption wavelength (λmax) after color development, spectrophotometer MCPD3000
- Assay type: physicochemical
- details: binder sheet (binder method), urethaneurea resin photochromic layer between polycarbonate sheets, 0.25 mmol per 100 parts by mass resin
endpoint-label: Maximum absorption wavelength (nm)

molecule="CCCCOc1ccc(C2(c3ccc(OC)cc3)C=Cc3c4c(c5cc(N(C)c6ccccc6)c(OC)cc5c3O2)-c2ccc(-c3ccc(C(C)(C)C)cc3)cc2C4(CC)CC)cc1 (centres unmarked) [Example 45 Formula (94)]" assay_value=506
molecule="COc1ccc(C2(c3ccc(OC)cc3)C=Cc3c4c(c5cc(N6CCOc7ccccc76)c(OC)cc5c3O2)-c2ccccc2C4(C)C)cc1 [Example 19 Formula (83)]" assay_value=515
molecule="COc1ccc(C2(c3ccc(OC)cc3)C=Cc3c4c(c5cc(N(C)c6ccc(F)cc6)c(OC)cc5c3O2)-c2ccccc2C4(C)C)cc1 [Example 4 Formula (34)]" assay_value=496
molecule="COc1ccc(C2(c3ccc(OC)cc3)C=Cc3c4c(c5cc(N6CCCCC6)c(OC)cc5c3O2)-c2ccccc2C4(C)C)cc1 [Formula (E), reference compound]" assay_value=481
molecule="CCCC1(CCC)c2ccccc2-c2c1c1c(c3cc(OC)c(N(c4ccccc4)c4ccc(C)cc4)cc23)OC(c2ccc(OC)cc2)(c2ccc(OC)cc2)C=C1 [Example 13 Formula (68)]" assay_value=512

====

- test-summary: Maximum absorption wavelength (λmax) after color development, spectrophotometer MCPD3000
- Format: physicochemical
- details: binder sheet (binder method); after color development
Measured Maximum absorption wavelength, listed per entry for reference.
endpoint-label: Maximum absorption wavelength (nm)

molecule="COc1ccc(C2(c3ccc(OC)cc3)C=Cc3c4c(c5cc(N6CCc7cc(C)ccc76)c(OC)cc5c3O2)-c2ccccc2C4(C)C)cc1 [Formula (52A)]" endpoint_label="Maximum absorption wavelength" assay_value=535
molecule="CCCC1(C)c2cc(Oc3ccccc3)ccc2-c2c1c1c(c3cc(OC)c(N4CCc5ccccc54)cc23)OC(c2ccc(OC)cc2)(c2ccc3c(c2)CCO3)C=C1 (centres unmarked) [Formula (70A)]" endpoint_label="Maximum absorption wavelength" assay_value=535
molecule="CCC1(CC)c2cc(C)ccc2-c2c1c1c(c3cc(C)c(N4CCc5ccccc54)cc23)OC(c2ccc(C)cc2)(c2ccc(OC)cc2)C=C1 (centres unmarked) [Formula (42A)]" endpoint_label="Maximum absorption wavelength" assay_value=535
molecule="COc1ccc(C2(c3ccc(OC)cc3)C=Cc3c4c(c5cc(N6CCc7ccccc76)c(-c6ccc(OC)cc6OC)cc5c3O2)-c2ccccc2C4(C)C)cc1 [Formula (I), reference compound]" endpoint_label="Maximum absorption wavelength" assay_value=522
molecule="CCCCCCOc1ccc(C2(c3ccc(OCCCCCC)cc3)C=Cc3c4c(c5cc(N6CCc7cc(OC)ccc76)c(OC)cc5c3O2)-c2ccc(-c3ccc(C(F)(F)F)cc3)cc2C42CC(C)(C)CC(C)(C)C2)cc1 [Formula (48A)]" endpoint_label="Maximum absorption wavelength" assay_value=539

====

Each entry below lists one item and its recorded A35 (-) value.
- test-summary: 35°C color optical density (A35): absorbancy difference ε(240)-ε(0) after 240 s light irradiation at 35°C
- Type: physicochemical
- details: binder sheet (binder method), 240 s irradiation
endpoint-label: A35 (-)

molecule="COc1ccc(C2(c3ccc(OC)cc3)C=Cc3c4c(c5cc(N(C)c6ccc(F)cc6)c(OC)cc5c3O2)-c2ccccc2C4(C)C)cc1 [Example 4 Formula (34)]" assay_value="0.79 -"
molecule="COc1ccc(C2(c3ccc(N4CCOCC4)cc3)C=Cc3c4c(c5cc(N6CCOc7ccccc76)c(C)cc5c3O2)-c2ccc(OC)cc2C4(CCCCF)CCCCF)cc1 (centres unmarked) [Example 47 Formula (102)]" assay_value="0.84 -"
molecule="CCCOc1ccc(C2(c3ccc(OCCC)cc3)C=Cc3c4c(c5cc(N6CCOc7cc(C)ccc76)c(OC)cc5c3O2)-c2ccc(-c3ccc(C(F)(F)F)cc3)cc2C4(CCOC)CCOC)cc1 [Example 48 Formula (106)]" assay_value="0.90 -"
molecule="CCCOc1ccc(C2(c3ccc(OCCC)cc3)C=Cc3c4c(c5cc(N(C)c6ccc(C)cc6)c(OC)cc5c3O2)-c2ccccc2C4(CCCCOC)CCCCOC)cc1 [Example 20 Formula (85)]" assay_value="0.86 -"
molecule="COc1ccc(C2(c3ccc(OC)cc3)C=Cc3c4c(c5cc(N6CCOc7ccccc76)c(OC)cc5c3O2)-c2ccccc2C4(C)C)cc1 [Example 19 Formula (83)]" assay_value="0.91 -"
